ASSAYED SYSTEM: human JAK2 (Homo sapiens)
Construct: catalytic domain (amino acids 808-1132; catalog number PV4210); GST
Sequence (O60674 808-1132): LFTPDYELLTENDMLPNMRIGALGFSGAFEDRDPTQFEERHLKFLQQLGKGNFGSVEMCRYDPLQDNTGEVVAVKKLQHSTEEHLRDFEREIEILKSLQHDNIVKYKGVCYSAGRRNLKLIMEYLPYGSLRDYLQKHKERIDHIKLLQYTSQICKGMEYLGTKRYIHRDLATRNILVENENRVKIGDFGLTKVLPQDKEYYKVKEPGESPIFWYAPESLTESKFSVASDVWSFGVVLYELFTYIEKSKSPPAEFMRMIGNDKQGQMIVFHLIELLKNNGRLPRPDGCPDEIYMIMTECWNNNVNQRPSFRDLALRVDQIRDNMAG
EXPERIMENT SUMMARY: JAK2 inhibition assay (polyGT substrate / Ulight-JAK1 peptide)
MEASUREMENT SETUP: recombinant human JAK2 catalytic domain; polyGT or Ulight-JAK1 peptide assay
pIC50: −log10 of the molar value.

| MOLECULE | ASSAYED SYSTEM | pIC50 |
| --- | --- | --- |
| CCc1cc(C2CN(S(=O)(=O)CCOC)C2)ccc1N(C)c1cc2c(cn1)ncn2C | human JAK2 (Homo sapiens) | 7.00 to 11.00 |
| CCc1cc(C(C#N)N2CC(O)C2)ccc1N(C)c1cc2c(cn1)ncn2C (stereo not drawn) | human JAK2 (Homo sapiens) | 7.00 to 11.00 |
| CCc1cc(C2(CCNS(C)(=O)=O)COC2)ccc1N(C)c1cc2c(cn1)ncn2C | human JAK2 (Homo sapiens) | 7.00 to 11.00 |
| CCc1cc(C#N)c(C(F)(F)F)cc1N(C)c1cc2c(cn1)ncn2C | human JAK2 (Homo sapiens) | < 6.00 |
| CCc1cc(C(C#N)N2CCC(F)(F)CC2)ccc1N(C)c1cc2c(cn1)ncn2C (stereo not drawn) | human JAK2 (Homo sapiens) | 7.00 to 11.00 |
| CCc1cc(-c2ccc(CN)s2)ncc1N(C)c1cc2c(cn1)ncn2C | human JAK2 (Homo sapiens) | < 6.00 |
| CCc1cc(C2CN(C(=O)C(F)(F)F)C2)ncc1N(C)c1cc2c(cn1)ncn2C | human JAK2 (Homo sapiens) | 7.00 to 11.00 |
| CCc1cc(CNS(=O)(=O)C(F)F)ncc1N(C)c1cc2c(cn1)ncn2C | human JAK2 (Homo sapiens) | 6.30 to 7.00 |
| CCc1cn(C2(CC#N)CN(C(=O)OC(C)(C)C)C2)nc1N(C)c1cc2c(cn1)ncn2C | human JAK2 (Homo sapiens) | < 6.00 |
| Cc1cc(OCc2ccc(Cl)cc2)ccc1N(C)c1cc2c(cn1)ncn2C | human JAK2 (Homo sapiens) | < 6.00 |
| CN(c1cc2c(cn1)ncn2C)c1ccc(C2CN(C(=O)OC(C)(C)C)C2)cc1OC(F)F | human JAK2 (Homo sapiens) | < 6.00 |
| CCc1cc(CN2CCNC(=O)C2)ccc1N(C)c1cc2c(cn1)ncn2C | human JAK2 (Homo sapiens) | 6.30 to 7.00 |
| CCc1cc(N2CC[C@@H](F)C2)ncc1N(C)c1cc2c(cn1)ncn2C | human JAK2 (Homo sapiens) | 7.00 to 11.00 |
| CN(c1ccc(CC#N)cc1)c1cc2c(cn1)ncn2C | human JAK2 (Homo sapiens) | 6.30 to 7.00 |
| CCc1cc(C(CC#N)NS(C)(=O)=O)ccc1N(C)c1cc2c(cn1)ncn2C (stereo not drawn) | human JAK2 (Homo sapiens) | 6.30 to 7.00 |
| CCc1ccccc1N(CC1CC1)c1cc2c(cn1)ncn2C | human JAK2 (Homo sapiens) | < 6.00 |
| COCN(Cc1ccc(N(C)c2cc3c(cn2)ncn3C)c(F)c1)S(C)(=O)=O | human JAK2 (Homo sapiens) | 6.30 to 7.00 |
| CCc1ccc(C(=O)N(C)C)cc1N(C)c1cc2c(cn1)ncn2C | human JAK2 (Homo sapiens) | < 6.00 |
